molecular target: CCR7 (Homo sapiens, UniProt P32248); construct: purchased Promega (in-house HiBiT-GPCR construct library, NanoBRET); experiment: NanoBRET screen HiBiT-CCR7 in HEK293; type: binding; details: CCR7; tracer 1μM
Sequence (P32248 25-378): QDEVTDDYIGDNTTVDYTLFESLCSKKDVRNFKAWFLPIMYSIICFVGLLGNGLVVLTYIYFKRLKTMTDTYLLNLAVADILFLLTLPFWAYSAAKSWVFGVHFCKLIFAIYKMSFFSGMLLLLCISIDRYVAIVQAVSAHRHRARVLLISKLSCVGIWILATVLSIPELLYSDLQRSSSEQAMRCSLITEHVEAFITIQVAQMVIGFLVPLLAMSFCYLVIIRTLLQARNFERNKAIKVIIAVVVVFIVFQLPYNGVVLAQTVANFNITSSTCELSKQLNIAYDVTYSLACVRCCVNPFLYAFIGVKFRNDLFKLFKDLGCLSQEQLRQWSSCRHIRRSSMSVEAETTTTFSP
In this section, each of the molecules is paired with its reported NanoBRET Fold Response.
Respond numerically, and do not add a unit to the figure.

Use the examples below as a reference point.
Molecule	Property	Value Observed
CCCn1c(=O)c2[nH]c(-c3ccc(OCC(=O)NCCNC(=O)CCOCCNC(=O)c4ccc(CNC(=O)CCc5ccc6n5[B-](F)(F)[N+]5=C(c7ccc[nH]7)C=CC5=C6)cc4)cc3)nc2n(CCC)c1=O	NanoBRET Fold Response	1.04
Cc1cc2c(s1)Nc1ccccc1N=C2N1CCN(CCCNC(=O)CCOCCOCCOCCOCCNC(=O)CCc2ccc3n2[B-](F)(F)[N+]2=C(c4ccc[nH]4)C=CC2=C3)CC1	NanoBRET Fold Response	1.05
O=C(CCc1ccc2n1[B-](F)(F)[N+]1=C(c3ccc[nH]3)C=CC1=C2)NCCOCCOCCNC(=O)OCCOCCN1CCN(C2=Nc3ccccc3Sc3ccccc32)CC1	NanoBRET Fold Response	1.01
COc1ccccc1N1CCN(CCCCN2C(=O)c3ccc(CNC(=O)CCOCCOCCOCCOCCNC(=O)CCc4ccc5n4[B-](F)(F)[N+]4=C(c6ccc[nH]6)C=CC4=C5)cc3C2=O)CC1	NanoBRET Fold Response	0.99
CC(C)N(CC[C@H](c1ccccc1)c1cc(CCNC(=O)CCOCCOCCOCCOCCNC(=O)CCc2ccc3n2[B-](F)(F)[N+]2=C(c4ccc[nH]4)C=CC2=C3)ccc1O)C(C)C	NanoBRET Fold Response	0.88
O=C(CCOCCOCCOCCOCCNC(=O)CCc1ccc2n1[B-](F)(F)[N+]1=C(c3ccc[nH]3)C=CC1=C2)NCCCN1CCN(C2=Nc3ccccc3Oc3ccc(Cl)cc32)CC1	NanoBRET Fold Response	1.11
N#CN=C(NCCCOc1cccc(CN2CCCCC2)c1)NCCNC(=O)CCOCCOCCOCCOCCNC(=O)CCc1ccc2n1[B-](F)(F)[N+]1=C(c3ccc[nH]3)C=CC1=C2	NanoBRET Fold Response	1.01
Cc1nc2n(c(=O)c1CCN1CCC(c3noc4cc(F)ccc34)CC1)CCCC2OC(=O)NCCOCCOCCOCCOCCNC(=O)CCc1ccc2n1[B-](F)(F)[N+]1=C(c3ccc[nH]3)C=CC1=C2 (centres unmarked)	NanoBRET Fold Response	1.04
O=C(CCc1ccc2n1[B-](F)(F)[N+]1=C(c3ccc[nH]3)C=CC1=C2)NCc1ccc(C(=O)NCCOCCC(=O)N[C@@H]2CC[C@@]3(O)[C@H]4Cc5ccc(O)c6c5[C@@]3(CCN4CC3CC3)[C@H]2O6)cc1 [Naltrexone-3-NB590]	NanoBRET Fold Response	1.05
COc1ccccc1N1CCN(CCCCN2C(=O)c3ccc(CNC(=O)CCOCCNC(=O)c4ccc(CNC(=O)CCc5ccc6n5[B-](F)(F)[N+]5=C(c7ccc[nH]7)C=CC5=C6)cc4)cc3C2=O)CC1	NanoBRET Fold Response	1.00

Here is the next item to consider.
// returns reported NanoBRET Fold Response for input CC(C)N(CC[C@H](c1ccccc1)c1cc(CCNC(=O)c2ccc(CNC(=O)CCc3ccc4n3[B-](F)(F)[N+]3=C(c5ccc[nH]5)C=CC3=C4)cc2)ccc1O)C(C)C
1.01

---

biological target: SSTR3 (Homo sapiens, UniProt P32745); construct: purchased Promega (in-house HiBiT-GPCR construct library, NanoBRET); test: NanoBRET screen HiBiT-SSTR3 in HEK293; assay type: binding; details: SSTR3; tracer 1μM
Sequence (P32745 whole entry): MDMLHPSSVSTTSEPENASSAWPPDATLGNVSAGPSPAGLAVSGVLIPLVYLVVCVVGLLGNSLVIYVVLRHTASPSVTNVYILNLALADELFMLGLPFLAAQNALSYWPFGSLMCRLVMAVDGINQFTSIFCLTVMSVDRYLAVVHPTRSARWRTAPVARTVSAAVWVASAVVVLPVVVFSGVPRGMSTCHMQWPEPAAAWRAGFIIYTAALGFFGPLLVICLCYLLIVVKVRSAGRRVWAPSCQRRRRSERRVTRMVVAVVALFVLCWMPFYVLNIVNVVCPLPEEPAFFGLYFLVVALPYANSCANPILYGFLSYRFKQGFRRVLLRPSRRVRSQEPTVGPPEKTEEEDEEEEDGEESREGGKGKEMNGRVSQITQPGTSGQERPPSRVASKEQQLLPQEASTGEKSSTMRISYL
Cut-off 1 on NanoBRET Fold Response, inclusive. At or above means true (1); below means false (0).

Would you please look over these solved cases?
Molecule	Assayed Target	Category
COc1ccccc1N1CCN(CCCCN2C(=O)c3ccc(CNC(=O)CCOCCNC(=O)c4ccc(CNC(=O)CCc5ccc6n5[B-](F)(F)[N+]5=C(c7ccc[nH]7)C=CC5=C6)cc4)cc3C2=O)CC1 [NAN-190-3-NB590]	SSTR3 (Homo sapiens, UniProt P32745)	false (0)
Cc1cc2c(s1)Nc1ccccc1N=C2N1CCN(CCCNC(=O)CCOCCOCCOCCOCCNC(=O)CCc2ccc3n2[B-](F)(F)[N+]2=C(c4ccc[nH]4)C=CC2=C3)CC1 [Olanzapine-a-2-NB590]	SSTR3 (Homo sapiens, UniProt P32745)	true (1)
O=C(CCc1ccc2n1[B-](F)(F)[N+]1=C(c3ccc[nH]3)C=CC1=C2)NCCOCCOCCNC(=O)OCCOCCN1CCN(C2=Nc3ccccc3Sc3ccccc32)CC1 [Quetiapine-a-2-NB590]	SSTR3 (Homo sapiens, UniProt P32745)	false (0)
CC(C)N(CC[C@H](c1ccccc1)c1cc(CCNC(=O)c2ccc(CNC(=O)CCc3ccc4n3[B-](F)(F)[N+]3=C(c5ccc[nH]5)C=CC3=C4)cc2)ccc1O)C(C)C [Tolterodine-BZ-NB590]	SSTR3 (Homo sapiens, UniProt P32745)	true (1)

# input for lookup
Is it the case that O=C(CCOCCOCCOCCOCCNC(=O)CCc1ccc2n1[B-](F)(F)[N+]1=C(c3ccc[nH]3)C=CC1=C2)NCCCN1CCN(C2=Nc3ccccc3Oc3ccc(Cl)cc32)CC1 [Loxapine-a-2-NB590] has NanoBRET Fold Response reaching or exceeding 1?
true (1)

---

target: GRM3 (Homo sapiens); construct: purchased Promega (in-house HiBiT-GPCR construct library, NanoBRET); assay: NanoBRET screen HiBiT-GRM3 in HEK293; assay type: binding; settings: GRM3; tracer 0.1μM
Sequence (Q14832 23-879): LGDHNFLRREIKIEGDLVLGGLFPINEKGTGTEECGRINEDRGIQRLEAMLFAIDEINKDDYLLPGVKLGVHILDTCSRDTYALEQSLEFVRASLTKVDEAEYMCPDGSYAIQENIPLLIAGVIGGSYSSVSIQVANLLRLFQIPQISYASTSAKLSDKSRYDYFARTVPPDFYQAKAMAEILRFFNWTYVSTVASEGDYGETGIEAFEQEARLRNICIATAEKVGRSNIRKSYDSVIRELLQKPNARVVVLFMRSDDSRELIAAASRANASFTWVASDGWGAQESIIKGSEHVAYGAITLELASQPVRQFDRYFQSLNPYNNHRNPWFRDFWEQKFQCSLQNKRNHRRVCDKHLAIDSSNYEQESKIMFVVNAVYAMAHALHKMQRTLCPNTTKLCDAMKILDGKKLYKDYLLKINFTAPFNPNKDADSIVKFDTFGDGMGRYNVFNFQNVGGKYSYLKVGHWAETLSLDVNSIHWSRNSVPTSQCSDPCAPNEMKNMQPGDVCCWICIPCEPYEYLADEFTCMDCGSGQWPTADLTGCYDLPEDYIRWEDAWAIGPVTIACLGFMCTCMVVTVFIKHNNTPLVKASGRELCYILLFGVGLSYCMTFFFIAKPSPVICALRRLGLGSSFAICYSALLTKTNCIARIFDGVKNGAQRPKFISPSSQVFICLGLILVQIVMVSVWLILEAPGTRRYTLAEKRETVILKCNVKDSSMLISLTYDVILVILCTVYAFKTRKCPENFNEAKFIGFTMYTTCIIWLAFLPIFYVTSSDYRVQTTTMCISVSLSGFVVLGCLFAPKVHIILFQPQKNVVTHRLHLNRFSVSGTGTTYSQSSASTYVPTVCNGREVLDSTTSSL
Property: NanoBRET Fold Response
Respond numerically, and do not add a unit to the figure.

Use the examples below as a reference point.
Compound	NanoBRET Fold Response
COc1ccccc1N1CCN(CCCCN2C(=O)c3ccc(CNC(=O)CCOCCNC(=O)c4ccc(CNC(=O)CCc5ccc6n5[B-](F)(F)[N+]5=C(c7ccc[nH]7)C=CC5=C6)cc4)cc3C2=O)CC1	0.98
Cc1cc2c(s1)Nc1ccccc1N=C2N1CCN(CCCNC(=O)CCOCCOCCOCCOCCNC(=O)CCc2ccc3n2[B-](F)(F)[N+]2=C(c4ccc[nH]4)C=CC2=C3)CC1	1.02
O=C(CCc1ccc2n1[B-](F)(F)[N+]1=C(c3ccc[nH]3)C=CC1=C2)NCc1ccc(C(=O)NCCOCCC(=O)N[C@@H]2CC[C@@]3(O)[C@H]4Cc5ccc(O)c6c5[C@@]3(CCN4CC3CC3)[C@H]2O6)cc1 [Naltrexone-3-NB590]	1.15

// returns reported NanoBRET Fold Response for input COc1ccccc1N1CCN(CCCCN2C(=O)c3ccc(CNC(=O)CCOCCOCCOCCOCCNC(=O)CCc4ccc5n4[B-](F)(F)[N+]4=C(c6ccc[nH]6)C=CC4=C5)cc3C2=O)CC1
0.95

Follow-up item: CC(C)N(CC[C@H](c1ccccc1)c1cc(CCNC(=O)c2ccc(CNC(=O)CCc3ccc4n3[B-](F)(F)[N+]3=C(c5ccc[nH]5)C=CC3=C4)cc2)ccc1O)C(C)C
0.99

Follow-up item: CC(C)N(CC[C@H](c1ccccc1)c1cc(CCNC(=O)CCOCCOCCOCCOCCNC(=O)CCc2ccc3n2[B-](F)(F)[N+]2=C(c4ccc[nH]4)C=CC2=C3)ccc1O)C(C)C
0.82

Follow-up item: N#CN=C(NCCCOc1cccc(CN2CCCCC2)c1)NCCNC(=O)CCOCCOCCOCCOCCNC(=O)CCc1ccc2n1[B-](F)(F)[N+]1=C(c3ccc[nH]3)C=CC1=C2
1.01

Follow-up item: O=C(CCc1ccc2n1[B-](F)(F)[N+]1=C(c3ccc[nH]3)C=CC1=C2)NCCOCCOCCNC(=O)OCCOCCN1CCN(C2=Nc3ccccc3Sc3ccccc32)CC1
1.08

Follow-up item: Cc1nc2n(c(=O)c1CCN1CCC(c3noc4cc(F)ccc34)CC1)CCCC2OC(=O)NCCOCCOCCOCCOCCNC(=O)CCc1ccc2n1[B-](F)(F)[N+]1=C(c3ccc[nH]3)C=CC1=C2 (stereo not drawn)
1.07

---

target: ADRA1A (Homo sapiens); construct: purchased Promega (in-house HiBiT-GPCR construct library, NanoBRET); assay: NanoBRET screen HiBiT-ADRA1A in HEK293; format: binding; settings: ADRA1A; tracer 0.1μM
Sequence (P35348 whole entry): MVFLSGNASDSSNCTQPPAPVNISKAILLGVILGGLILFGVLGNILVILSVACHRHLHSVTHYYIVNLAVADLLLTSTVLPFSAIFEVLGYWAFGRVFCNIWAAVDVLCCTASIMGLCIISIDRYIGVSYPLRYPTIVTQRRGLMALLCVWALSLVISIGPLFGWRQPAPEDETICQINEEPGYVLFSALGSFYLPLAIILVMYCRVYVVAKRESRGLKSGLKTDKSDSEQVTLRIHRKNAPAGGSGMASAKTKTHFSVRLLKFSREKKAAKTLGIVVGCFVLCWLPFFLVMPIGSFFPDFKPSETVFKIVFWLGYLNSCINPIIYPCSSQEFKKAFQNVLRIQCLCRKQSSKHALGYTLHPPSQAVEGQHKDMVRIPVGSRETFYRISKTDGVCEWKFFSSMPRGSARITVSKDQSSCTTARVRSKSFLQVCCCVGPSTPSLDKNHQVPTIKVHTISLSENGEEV
Property: NanoBRET Fold Response
Respond numerically, and do not add a unit to the figure.

Use the examples below as a reference point.
Compound	Value Observed
Cc1nc2n(c(=O)c1CCN1CCC(c3noc4cc(F)ccc34)CC1)CCCC2OC(=O)NCCOCCOCCOCCOCCNC(=O)CCc1ccc2n1[B-](F)(F)[N+]1=C(c3ccc[nH]3)C=CC1=C2 (stereo not drawn) [Risperidone-2-NB590]	4.86
O=C(CCc1ccc2n1[B-](F)(F)[N+]1=C(c3ccc[nH]3)C=CC1=C2)NCc1ccc(C(=O)NCCOCCC(=O)N[C@@H]2CC[C@@]3(O)[C@H]4Cc5ccc(O)c6c5[C@@]3(CCN4CC3CC3)[C@H]2O6)cc1 [Naltrexone-3-NB590]	1.10

# returns recorded NanoBRET Fold Response (system: ADRA1A (Homo sapiens)) for CC(C)N(CC[C@H](c1ccccc1)c1cc(CCNC(=O)CCOCCOCCOCCOCCNC(=O)CCc2ccc3n2[B-](F)(F)[N+]2=C(c4ccc[nH]4)C=CC2=C3)ccc1O)C(C)C [Tolterodine-2-NB590]
0.97

FYI, the data here is from paper PMC8151276.
